This collection of values is drawn from ChEMBL document CHEMBL5346900.

These records show IC50 for UniProtKB Q16873.
Sequence (Q16873 whole entry): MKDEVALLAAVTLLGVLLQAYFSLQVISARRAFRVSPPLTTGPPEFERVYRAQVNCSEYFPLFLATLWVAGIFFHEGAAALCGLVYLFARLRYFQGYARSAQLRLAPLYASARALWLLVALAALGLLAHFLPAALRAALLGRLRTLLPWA
The reply should be a number in nM, with the unit left off.

>>> measured_number("Oc1ccc(CCNC(=S)Nc2ccc(Br)cn2)cc1")
5000

input: Dear colleague, I am looking for the recorded IC50 of the following compound: CCOC(=O)Cc1csc(NC(=S)NC(C)c2cccc3ccccc23)n1 (centres undefined)
output: 2

input: Next up: Cc1ccc(NC(=S)NC(C)c2cccc3ccccc23)nc1 (centres undefined)
output: 5

input: Follow-up item: S=C(NCCc1c[nH]c2ccccc12)Nc1ccc(Cl)cn1
output: 5000

---

# Assay: Half life in Sprague-Dawley rat at 3 mg/kg, iv measured by LC/MS analysis
# Format: ADME, organism-based
# Setup conditions: in vivo
Observable: half-life (min)
Enter your answer as a number in min; do not include the unit.

input: Value lookup for half-life; key = CN1CCN(C(=O)c2cc3cc(Cl)ccc3[nH]2)CC1 [JNJ-7777120]
output: 48
